Target: SARS-COV-2 RBD extracellular domain expressed with a C-terminal mouse IgG2a Fc (SARS-CoV-2)
Assay: Biacore SPR, mAb captured on anti-hFc, 37 C
Please go through the items and note down their kon.
Please give a number only; it is taken to be in M⁻¹ s⁻¹.

## Task Sample mAb13458 (antibody, V domains shown) VH: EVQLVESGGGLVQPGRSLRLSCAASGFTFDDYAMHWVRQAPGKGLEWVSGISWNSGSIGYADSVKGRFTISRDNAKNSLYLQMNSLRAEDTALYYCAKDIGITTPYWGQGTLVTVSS VL: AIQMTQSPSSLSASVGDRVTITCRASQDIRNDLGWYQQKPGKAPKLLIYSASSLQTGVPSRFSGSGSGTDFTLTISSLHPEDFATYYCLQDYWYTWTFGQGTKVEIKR — what was its kon?
## Result 1.16e+06

## Task Then this binder: mAb15164 (antibody, V domains shown) VH: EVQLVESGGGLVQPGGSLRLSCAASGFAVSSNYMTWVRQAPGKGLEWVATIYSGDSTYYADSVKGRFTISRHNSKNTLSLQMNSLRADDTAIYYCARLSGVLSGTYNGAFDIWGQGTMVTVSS VL: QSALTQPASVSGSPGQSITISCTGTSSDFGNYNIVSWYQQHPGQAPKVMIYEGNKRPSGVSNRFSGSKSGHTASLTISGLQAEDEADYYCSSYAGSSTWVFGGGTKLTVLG
## Result 1.82e+06

## Task Item: mAb15163 (antibody, V domains shown) VH: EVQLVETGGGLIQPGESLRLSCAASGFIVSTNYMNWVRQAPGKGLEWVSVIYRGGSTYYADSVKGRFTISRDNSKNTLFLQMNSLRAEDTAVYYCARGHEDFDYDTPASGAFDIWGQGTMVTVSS VL: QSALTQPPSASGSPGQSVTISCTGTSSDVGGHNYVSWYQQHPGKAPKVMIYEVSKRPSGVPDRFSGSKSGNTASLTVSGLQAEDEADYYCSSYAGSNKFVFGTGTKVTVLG
## Result 416000
